target: T1, rhNav1.7α + β1-β2-β3 (rhesus monkey); assay: binding FACS, CHO FlpIn
T1 construct: also called rhNav1.7-beta1-beta2-beta3; rhNav1.7-β1-β2-β3
Items are presented alongside their recorded Bmax.
Report the value in % with no unit label.

- Binder: "F010302352 (VHH) VHH: EVQLVESGGGVVQPGGSLRLSCAASHRQFIRDVFTGWYRRAPGKQRELVARIYNEGNTQYADSVKGRFTISRDNAKKTVYLQMNSLRPEDTALYYCLFSGTISTGREYRSGDYWGQGTLVTVSS"
  Property Label: "Bmax"
  Display Unit: "%"
  Observed Value: 60
- Binder: "F010302342 (VHH) VHH: EVQLVESGGGVVQPGGSLRLSCAASSRQFIRDVFTGWYRQAPGKQRELVARIYNEGNTQYADSAKGRFTISRDNAKKTVYLQMNSLRPEDTALYYCLFSGTISTGREYRSGDYWGQGTLVTVSS"
  Property Label: "Bmax"
  Display Unit: "%"
  Observed Value: 61
- Binder: "F010302355 (VHH) VHH: EVQLVESGGGVVQPGGSLRLSCAASHRAFIRDVFTGWYRRAPGKQRELVARIYEGGNTQYADSVKGRFTISRDNAKKTVYLQMNSLRPEDTALYYCLFSGTISTGREYRSGDYWGQGTLVTVSS"
  Property Label: "Bmax"
  Display Unit: "%"
  Observed Value: 97
- Binder: "F010302351 (VHH) VHH: EVQLVESGGGVVQPGGSLRLSCAASSRQFIRDVFTGWYRRAPGKQRELVARIYESGNTQYADSVKGRFTISRDNAKKTVYLQMNSLRPEDTALYYCLFSGTISTGREYRSGDYWGQGTLVTVSS"
  Property Label: "Bmax"
  Display Unit: "%"
  Observed Value: 72
- Binder: "F010302334 (VHH) VHH: EVQLVESGGGVVQPGGSLRLSCAASSRQFIRDVFTGWYRRAPGKQRELVARIYNEGNTQYADSAKGRFTISRDNAKKTVYLQMNSLRPEDTALYYCLFSGTISTGREYRSGDYWGQGTLVTVSS"
  Property Label: "Bmax"
  Display Unit: "%"
  Observed Value: 70

Look up Bmax for this binder: F010302359 (VHH) VHH: EVQLVESGGGVVQPGGSLRLSCAASSRQFIRDVFTGWYRQAPGKQRELVARIYESGNTQYADSVKGRFTISRDNAKKTVYLQMNSLRPEDTALYYCLFSGTISTGREYRSGDYWGQGTLVTVSS
66

Request: F010302360 (VHH) VHH: EVQLVESGGGVVQPGGSLRLSCAASHRQFIRDVFTGWYRQAPGKQRELVARIYNEGNTQYADSVKGRFTISRDNAKKTVYLQMNSLRPEDTALYYCLFSGTISTGREYRSGDYWGQGTLVTVSS
58

Same read-out for F010302348 (VHH) VHH: EVQLVESGGGVVQPGGSLRLSCAASHRAFIRDLFTGWYRQAPGKQRELVARIYESGNTNYADSAKGRFTISRDNAKKTVYLQMNSLRPEDTALYYCLFSGTISTGREYRSGDYWGQGTLVTVSS ?
95

How about F010302336 (VHH) VHH: EVQLVESGGGVVQPGGSLRLSCAASHRQFIRDVFTGWYRRAPGKQRELVARIYNEGNTQYADSAKGRFTISRDNAKKTVYLQMNSLRPEDTALYYCLFSGTISTGREYRSGDYWGQGTLVTVSS ?
79
